- Organism: Bos taurus
- PROTOCOL DETAILS: Polymerizing activity of tubulin in glutamate against bovine brain tubulin homogenate was measured at 0.4 M concentrations
- Type: functional
Would you kindly list IC50 for each of these compounds?

Q. Give its IC50 value. Item: CC(=O)O[C@H]1C(=O)[C@@]2(C)[C@H]([C@H](OC(=O)c3cccc(F)c3)[C@]3(O)C[C@H](OC(=O)[C@H](O)[C@@H](NC(=O)c4ccccc4)c4ccccc4)C(C)=C1C3(C)C)[C@]1(OC(C)=O)CO[C@@H]1C[C@@H]2O
A. 1.2 relative to paclitaxel

Q. Fill blank: measured IC50 of the compound CC(=O)O[C@H]1C(=O)[C@@]2(C)[C@H]([C@H](OC(=O)c3cccc(I)c3)[C@]3(O)C[C@H](OC(=O)[C@H](O)[C@@H](NC(=O)c4ccccc4)c4ccccc4)C(C)=C1C3(C)C)[C@]1(OC(C)=O)CO[C@@H]1C[C@@H]2O is ____.
A. > 1.7 relative to paclitaxel

Q. Fill in the blank: the reported IC50 of CC(=O)O[C@H]1C(=O)[C@@]2(C)[C@H]([C@H](OC(=O)c3cc(F)c(F)cc3F)[C@]3(O)C[C@H](OC(=O)[C@H](O)[C@@H](NC(=O)c4ccccc4)c4ccccc4)C(C)=C1C3(C)C)[C@]1(OC(C)=O)CO[C@@H]1C[C@@H]2O is ____.
A. > 1.7 relative to paclitaxel

Q. What does the record list as IC50 for CC(=O)O[C@H]1C(=O)[C@@]2(C)[C@H]([C@H](OC(=O)c3ccc(Cl)cc3)[C@]3(O)C[C@H](OC(=O)[C@H](O)[C@@H](NC(=O)c4ccccc4)c4ccccc4)C(C)=C1C3(C)C)[C@]1(OC(C)=O)CO[C@@H]1C[C@@H]2O ?
A. > 1.7 relative to paclitaxel

Q. Item under review: COc1ccccc1C(=O)O[C@H]1[C@@H]2[C@]3(OC(C)=O)CO[C@@H]3C[C@H](O)[C@@]2(C)C(=O)[C@H](OC(C)=O)C2=C(C)[C@@H](OC(=O)[C@H](O)[C@@H](NC(=O)c3ccccc3)c3ccccc3)C[C@]1(O)C2(C)C . Reported IC50?
A. > 1.7 relative to paclitaxel

Q. // returns reported IC50 for input CCOc1cccc(C(=O)O[C@H]2[C@@H]3[C@]4(OC(C)=O)CO[C@@H]4C[C@H](O)[C@@]3(C)C(=O)[C@H](OC(C)=O)C3=C(C)[C@@H](OC(=O)[C@H](O)[C@@H](NC(=O)c4ccccc4)c4ccccc4)C[C@]2(O)C3(C)C)c1
A. 1.4 relative to paclitaxel

Q. Suppose we examine the compound CC(=O)O[C@H]1C(=O)[C@@]2(C)[C@H]([C@H](OC(=O)c3cc([N+](=O)[O-])cc([N+](=O)[O-])c3)[C@]3(O)C[C@H](OC(=O)[C@H](O)[C@@H](NC(=O)c4ccccc4)c4ccccc4)C(C)=C1C3(C)C)[C@]1(OC(C)=O)CO[C@@H]1C[C@@H]2O ; what IC50 value has been reported?
A. > 1.7 relative to paclitaxel

Q. Looking for the measured IC50 of COc1ccc(OC)c(C(=O)O[C@H]2[C@@H]3[C@]4(OC(C)=O)CO[C@@H]4C[C@H](O)[C@@]3(C)C(=O)[C@H](OC(C)=O)C3=C(C)[C@@H](OC(=O)[C@H](O)[C@@H](NC(=O)c4ccccc4)c4ccccc4)C[C@]2(O)C3(C)C)c1 , can you help?
A. 0.2 relative to paclitaxel
